Target: ATR kinase (Homo sapiens (Human), UniProt Q13535)
Sequence (Q13535 whole entry): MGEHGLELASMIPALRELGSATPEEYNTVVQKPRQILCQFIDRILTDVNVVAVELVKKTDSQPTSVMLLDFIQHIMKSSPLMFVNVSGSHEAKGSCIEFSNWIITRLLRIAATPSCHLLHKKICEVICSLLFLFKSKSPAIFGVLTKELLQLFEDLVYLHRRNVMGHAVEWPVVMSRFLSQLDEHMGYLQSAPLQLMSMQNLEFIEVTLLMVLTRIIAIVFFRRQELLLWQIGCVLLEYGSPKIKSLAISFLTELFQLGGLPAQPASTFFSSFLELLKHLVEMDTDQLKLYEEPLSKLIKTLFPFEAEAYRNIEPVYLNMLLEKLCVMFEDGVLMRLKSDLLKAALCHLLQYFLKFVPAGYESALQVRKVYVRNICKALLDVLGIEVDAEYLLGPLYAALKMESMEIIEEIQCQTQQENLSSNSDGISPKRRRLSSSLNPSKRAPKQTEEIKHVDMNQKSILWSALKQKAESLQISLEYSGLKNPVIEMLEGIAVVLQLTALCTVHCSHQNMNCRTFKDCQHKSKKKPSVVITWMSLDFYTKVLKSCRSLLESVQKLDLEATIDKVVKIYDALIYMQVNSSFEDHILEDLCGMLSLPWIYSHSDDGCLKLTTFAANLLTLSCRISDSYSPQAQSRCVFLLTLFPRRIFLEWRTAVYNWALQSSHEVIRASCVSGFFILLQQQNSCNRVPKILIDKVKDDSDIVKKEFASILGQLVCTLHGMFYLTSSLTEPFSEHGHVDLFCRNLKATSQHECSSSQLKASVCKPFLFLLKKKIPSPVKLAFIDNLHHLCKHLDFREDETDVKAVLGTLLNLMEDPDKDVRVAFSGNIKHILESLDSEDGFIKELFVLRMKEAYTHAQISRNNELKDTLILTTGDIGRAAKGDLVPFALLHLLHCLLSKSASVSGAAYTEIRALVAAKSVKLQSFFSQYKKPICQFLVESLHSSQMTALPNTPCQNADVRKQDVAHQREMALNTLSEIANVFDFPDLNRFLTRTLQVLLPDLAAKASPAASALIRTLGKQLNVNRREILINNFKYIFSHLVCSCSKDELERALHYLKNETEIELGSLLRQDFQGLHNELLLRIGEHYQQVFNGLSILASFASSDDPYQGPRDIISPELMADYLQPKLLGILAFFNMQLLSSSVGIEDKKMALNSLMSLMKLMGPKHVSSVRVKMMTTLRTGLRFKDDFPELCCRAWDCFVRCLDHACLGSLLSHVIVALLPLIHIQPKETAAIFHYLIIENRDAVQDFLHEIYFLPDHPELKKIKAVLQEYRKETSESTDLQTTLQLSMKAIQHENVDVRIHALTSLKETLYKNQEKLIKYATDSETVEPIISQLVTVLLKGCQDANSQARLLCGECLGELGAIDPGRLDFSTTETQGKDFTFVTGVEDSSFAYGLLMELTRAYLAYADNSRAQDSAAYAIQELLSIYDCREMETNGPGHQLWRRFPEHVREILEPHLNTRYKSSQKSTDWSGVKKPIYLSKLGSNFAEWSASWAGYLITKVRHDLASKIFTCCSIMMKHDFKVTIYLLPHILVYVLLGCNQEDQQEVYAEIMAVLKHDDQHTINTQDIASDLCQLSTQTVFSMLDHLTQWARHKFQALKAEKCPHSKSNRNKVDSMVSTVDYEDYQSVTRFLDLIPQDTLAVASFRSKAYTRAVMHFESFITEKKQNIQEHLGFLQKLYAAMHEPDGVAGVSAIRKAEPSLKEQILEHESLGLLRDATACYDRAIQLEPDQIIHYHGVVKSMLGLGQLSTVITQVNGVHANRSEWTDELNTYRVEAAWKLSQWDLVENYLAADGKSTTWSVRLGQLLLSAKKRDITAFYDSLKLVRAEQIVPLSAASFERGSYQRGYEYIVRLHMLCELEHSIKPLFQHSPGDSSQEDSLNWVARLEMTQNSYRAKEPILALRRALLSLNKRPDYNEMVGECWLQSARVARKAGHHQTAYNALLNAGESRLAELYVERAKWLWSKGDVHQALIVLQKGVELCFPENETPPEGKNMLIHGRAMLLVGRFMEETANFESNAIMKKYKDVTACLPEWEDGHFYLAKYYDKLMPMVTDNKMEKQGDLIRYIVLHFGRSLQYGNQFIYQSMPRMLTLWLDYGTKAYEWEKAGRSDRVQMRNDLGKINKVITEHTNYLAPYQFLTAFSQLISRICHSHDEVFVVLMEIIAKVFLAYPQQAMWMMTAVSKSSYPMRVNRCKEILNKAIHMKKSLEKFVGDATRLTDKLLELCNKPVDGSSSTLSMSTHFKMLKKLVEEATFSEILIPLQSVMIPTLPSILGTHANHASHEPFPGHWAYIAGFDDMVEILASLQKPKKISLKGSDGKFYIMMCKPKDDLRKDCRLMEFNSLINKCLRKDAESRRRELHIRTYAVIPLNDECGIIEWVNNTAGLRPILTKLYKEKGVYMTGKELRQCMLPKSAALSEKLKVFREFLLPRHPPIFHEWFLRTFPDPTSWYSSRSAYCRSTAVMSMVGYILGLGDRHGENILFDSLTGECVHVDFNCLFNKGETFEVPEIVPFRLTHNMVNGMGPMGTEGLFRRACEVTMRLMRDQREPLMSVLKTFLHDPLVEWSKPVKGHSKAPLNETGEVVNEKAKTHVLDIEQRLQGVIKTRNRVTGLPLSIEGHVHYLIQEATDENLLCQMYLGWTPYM
Sequence (Q8WXE1 whole entry partner): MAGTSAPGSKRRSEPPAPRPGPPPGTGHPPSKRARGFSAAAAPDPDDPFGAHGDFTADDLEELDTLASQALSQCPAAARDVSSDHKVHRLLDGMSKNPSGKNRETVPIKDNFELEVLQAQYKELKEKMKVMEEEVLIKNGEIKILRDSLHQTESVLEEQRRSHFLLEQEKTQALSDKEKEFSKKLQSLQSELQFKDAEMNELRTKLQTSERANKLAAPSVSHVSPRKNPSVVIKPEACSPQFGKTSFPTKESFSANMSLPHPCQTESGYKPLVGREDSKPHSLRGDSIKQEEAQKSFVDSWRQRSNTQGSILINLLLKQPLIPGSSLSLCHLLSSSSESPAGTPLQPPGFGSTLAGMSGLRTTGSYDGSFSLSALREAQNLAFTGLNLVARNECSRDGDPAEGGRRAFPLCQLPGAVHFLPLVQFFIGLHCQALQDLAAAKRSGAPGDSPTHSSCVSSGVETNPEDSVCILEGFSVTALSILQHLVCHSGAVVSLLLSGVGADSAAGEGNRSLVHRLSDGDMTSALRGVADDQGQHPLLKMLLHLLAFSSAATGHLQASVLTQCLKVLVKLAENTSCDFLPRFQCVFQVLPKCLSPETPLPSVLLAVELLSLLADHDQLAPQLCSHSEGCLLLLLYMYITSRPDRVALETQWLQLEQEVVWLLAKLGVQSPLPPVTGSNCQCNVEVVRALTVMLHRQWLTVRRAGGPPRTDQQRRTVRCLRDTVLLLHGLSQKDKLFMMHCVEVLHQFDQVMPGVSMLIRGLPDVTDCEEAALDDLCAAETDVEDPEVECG
Experiment: ATR kinase activity assay (p53 phosphorylation, time-resolved fluorescence)
Format: biochemical
Settings: phosphorylation of p53 substrate, 30 minutes at room temperature
PARAMETER MEASURED: log10 IC50 (log10 of the value in nM)
On a log10 scale: recorded IC50, unit nM.

Example cases with answers are listed next.
What does the data say about its log10 IC50? Entry: Cc1nn(-c2cncc(F)c2)c(C)c1-c1cc([C@@]23CCOC[C@@H]2C3)nc2c(-c3ccn[nH]3)cnn12
2.74

What does the data say about its log10 IC50? Entry: Cc1nn(-c2cncc(F)c2)c(C)c1-c1cc([C@]23CCOC[C@H]2C3)nc2c(-c3ccn[nH]3)cnn12
1.52

Batch: log10 IC50 for all items listed.
1. Cc1cncc(-n2nc(C)c(-c3cc(N4CC5CCC(C4)O5)nc4c(-c5ccn[nH]5)cnn34)c2C)c1
2. Cc1nn(-c2cccnc2)c(C)c1-c1cc(C23CCOC[C@@H]2C3)nc2c(-c3ccn[nH]3)cnn12 (some centres unmarked)
3. Cc1nn(-c2cccnc2)c(C)c1-c1cc([C@]23CCOC[C@H]2C3)nc2c(-c3ccn[nH]3)cnn12

0.95
2.14
1.40
